Molecular target: Cholinesterase (Equus caballus, UniProt P81908)
Sequence (P81908 whole entry): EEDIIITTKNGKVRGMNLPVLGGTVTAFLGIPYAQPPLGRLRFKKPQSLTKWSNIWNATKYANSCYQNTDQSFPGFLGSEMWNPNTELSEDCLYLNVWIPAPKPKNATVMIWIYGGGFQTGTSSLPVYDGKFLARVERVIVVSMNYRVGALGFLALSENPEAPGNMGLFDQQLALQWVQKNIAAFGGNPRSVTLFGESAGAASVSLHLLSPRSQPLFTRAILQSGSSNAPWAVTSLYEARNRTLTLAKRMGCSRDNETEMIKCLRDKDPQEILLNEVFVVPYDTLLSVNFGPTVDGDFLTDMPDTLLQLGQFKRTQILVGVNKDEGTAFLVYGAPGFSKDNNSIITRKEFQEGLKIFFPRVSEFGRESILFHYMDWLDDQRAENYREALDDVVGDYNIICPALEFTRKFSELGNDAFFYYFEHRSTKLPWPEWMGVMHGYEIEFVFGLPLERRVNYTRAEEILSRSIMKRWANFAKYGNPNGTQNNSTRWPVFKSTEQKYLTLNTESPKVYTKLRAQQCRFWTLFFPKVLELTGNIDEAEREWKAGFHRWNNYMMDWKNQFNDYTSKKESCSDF
Assay: Inhibition of equine serum BChE preincubated for 15 mins followed by addition of S-butyrylthiocholine chloride as substrate measured after 30 mins by Ellman's microplate assay
# IC50 per record follows
ENDPOINT_LABEL: IC50

{"columns": ["COMPOUND", "TARGET_ENTITY", "RESULT"],
 "data": [
  ["COc1cc2c(cc1O)C[C@H]1c3c(cc(OC)c(OC)c3-2)CCN1C", "Cholinesterase (Equus caballus, UniProt P81908)", "219 µM"],
  ["COc1cc2c3c(c1OC)-c1cc4c(cc1C[C@@H]3NCC2)OCO4", "Cholinesterase (Equus caballus, UniProt P81908)", "94.4 µM"],
  ["COc1cc(CCN(C)C)c2ccc3ccccc3c2c1OC", "Cholinesterase (Equus caballus, UniProt P81908)", "19.3 µM"],
  ["COc1ccc(C2=C(c3ccc(O)cc3)CN3CCC[C@@H]3C2)cc1OC", "Cholinesterase (Equus caballus, UniProt P81908)", "167 µM"],
  ["COc1cc2c3c(c1O)C1(CCC(O)CC1)CC3NCC2 (configuration not stated)", "Cholinesterase (Equus caballus, UniProt P81908)", "288 µM"],
  ["COc1c(OC)c(OC)c2c(ccc3ccccc32)c1CCN(C)C", "Cholinesterase (Equus caballus, UniProt P81908)", "3.95 µM"],
  ["COc1ccc(C[C@H]2c3cc(O)c(OC)cc3CCN2C)cc1O [(S)-RETICULINE]", "Cholinesterase (Equus caballus, UniProt P81908)", "65 µM"]
]}
